# Target desc: c-Kit (Homo sapiens (Human))
# Test description: Inhibition of c-Kit kinase activity (HTRF KinEASE-TK)
# Assay type: biochemical
# Condition notes: biochemical, HTRF KinEASE-TK
pIC50: −log10 of the molar value.
Listing of entries alongside the reported pIC50.

>>> readout_value("Cc1ncc(C(=O)Nc2cc(C(=O)NCC3(F)CCC3)c(F)cc2C)s1")
"6.00 to 7.00"

Please report the recorded pIC50 for "Cc1cc(F)c(C(=O)Nc2cnn(C(C)C)n2)cc1NC(=O)c1cnc(N)s1" .
> 7.00

Please report the recorded pIC50 for "CCOc1ccc(NC(=O)c2cc(NC(=O)c3cnc(N)s3)c(F)cc2F)nc1" .
> 7.00

Please report the recorded pIC50 for "Cc1cc(F)c(C(=O)Nc2ccc3c(n2)CCOC3)cc1NC(=O)c1cnc(N)s1" .
> 7.00

Please report the recorded pIC50 for "Nc1ncc(C(=O)Nc2cc(C(=O)Nc3ccc(OCC(F)F)cn3)c(F)cc2F)s1" .
> 7.00

---

# Target desc: c-Kit (Homo sapiens (Human), UniProt P10721)
# Sequence (P10721 26-976): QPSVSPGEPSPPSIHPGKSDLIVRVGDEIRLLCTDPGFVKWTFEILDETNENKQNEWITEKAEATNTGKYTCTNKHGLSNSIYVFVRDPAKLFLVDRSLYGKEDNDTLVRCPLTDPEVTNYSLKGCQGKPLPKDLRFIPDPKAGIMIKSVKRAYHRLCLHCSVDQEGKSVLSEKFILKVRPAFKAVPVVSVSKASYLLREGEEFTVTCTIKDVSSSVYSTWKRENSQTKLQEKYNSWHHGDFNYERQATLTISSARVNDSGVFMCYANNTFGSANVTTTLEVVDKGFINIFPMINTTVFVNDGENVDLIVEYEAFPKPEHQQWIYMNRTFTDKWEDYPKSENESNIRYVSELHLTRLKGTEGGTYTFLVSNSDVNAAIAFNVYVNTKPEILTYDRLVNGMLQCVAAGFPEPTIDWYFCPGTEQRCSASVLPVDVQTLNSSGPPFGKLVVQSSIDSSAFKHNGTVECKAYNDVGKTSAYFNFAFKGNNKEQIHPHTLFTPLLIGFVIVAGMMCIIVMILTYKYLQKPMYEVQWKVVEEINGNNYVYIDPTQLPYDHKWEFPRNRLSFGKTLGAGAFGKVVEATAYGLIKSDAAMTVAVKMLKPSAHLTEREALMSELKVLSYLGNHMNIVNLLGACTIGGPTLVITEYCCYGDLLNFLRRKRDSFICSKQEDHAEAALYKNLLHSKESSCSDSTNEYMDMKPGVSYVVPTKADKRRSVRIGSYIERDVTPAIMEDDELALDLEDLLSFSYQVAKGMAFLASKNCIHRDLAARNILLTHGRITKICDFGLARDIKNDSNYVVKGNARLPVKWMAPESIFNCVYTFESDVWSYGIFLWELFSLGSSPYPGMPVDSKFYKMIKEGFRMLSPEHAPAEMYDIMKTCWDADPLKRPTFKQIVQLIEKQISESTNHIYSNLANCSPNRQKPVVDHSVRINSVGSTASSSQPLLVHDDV
# Test description: Inhibition of c-Kit kinase activity (HTRF KinEASE-TK)
# Format: biochemical
# Condition notes: biochemical, HTRF KinEASE-TK
pIC50: −log10 of the molar value.
Readout kind: pIC50

Past entries and their recorded results:
>>> readout_value("Cc1cc(F)c(C(=O)Nc2cncc(C(F)(F)F)c2)cc1NC(=O)c1cnc(N)s1")
"> 7.00"
>>> readout_value("Cc1ncc(C(=O)Nc2cc(C(=O)NCc3ccc(OC(F)(F)F)cc3F)c(F)cc2C)s1")
"6.00 to 7.00"
>>> readout_value("Cc1cc(F)c(C(=O)Nc2cncc(C(F)F)c2)cc1NC(=O)c1cnc(N)s1")
"> 7.00"

Then there is this molecule:
Please report the recorded pIC50 for "Nc1ncc(C(=O)Nc2cc(C(=O)Nc3ccc(C(F)(F)F)cn3)c(F)cc2F)s1" .
> 7.00

---

# Target desc: CSF1R (Homo sapiens (Human), UniProt P07333)
# Sequence (P07333 20-972): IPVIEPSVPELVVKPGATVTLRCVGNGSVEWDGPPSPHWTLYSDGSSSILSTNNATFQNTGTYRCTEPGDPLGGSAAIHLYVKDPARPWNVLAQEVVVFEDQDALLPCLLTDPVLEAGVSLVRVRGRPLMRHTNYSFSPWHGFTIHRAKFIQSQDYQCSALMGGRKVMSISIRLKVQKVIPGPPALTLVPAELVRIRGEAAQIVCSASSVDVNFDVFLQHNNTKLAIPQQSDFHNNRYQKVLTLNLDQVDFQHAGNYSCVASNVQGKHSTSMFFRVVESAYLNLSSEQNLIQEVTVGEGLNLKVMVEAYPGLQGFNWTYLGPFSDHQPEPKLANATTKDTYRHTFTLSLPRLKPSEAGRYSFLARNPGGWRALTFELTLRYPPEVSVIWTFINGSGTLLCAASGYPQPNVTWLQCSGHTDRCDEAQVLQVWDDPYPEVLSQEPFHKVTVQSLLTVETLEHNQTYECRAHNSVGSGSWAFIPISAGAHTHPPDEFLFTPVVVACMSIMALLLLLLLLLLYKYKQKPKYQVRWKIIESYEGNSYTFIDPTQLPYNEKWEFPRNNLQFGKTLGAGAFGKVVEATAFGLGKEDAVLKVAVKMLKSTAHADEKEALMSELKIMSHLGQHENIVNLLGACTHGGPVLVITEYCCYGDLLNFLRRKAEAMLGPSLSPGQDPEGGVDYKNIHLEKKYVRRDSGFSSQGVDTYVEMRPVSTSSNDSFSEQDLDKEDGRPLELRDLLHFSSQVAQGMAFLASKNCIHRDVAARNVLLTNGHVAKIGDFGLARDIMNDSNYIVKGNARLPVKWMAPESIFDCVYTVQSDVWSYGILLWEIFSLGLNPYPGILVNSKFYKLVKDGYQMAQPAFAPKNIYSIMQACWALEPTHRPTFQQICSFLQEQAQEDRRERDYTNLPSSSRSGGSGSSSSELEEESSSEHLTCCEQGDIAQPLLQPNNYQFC
# Test description: Inhibition of CSF1R kinase activity (HTRF KinEASE-TK)
# Condition notes: biochemical, HTRF KinEASE-TK
pIC50: −log10 of the molar value.
Listing of entries alongside the reported pIC50.

Please report the recorded pIC50 for Cc1cc(F)c(C(=O)Nc2ccn(C(C)C)n2)cc1NC(=O)c1cnc(N)s1 [Example 158] .
< 6.00

Please report the recorded pIC50 for Cc1ncc(C(=O)Nc2cc(C(=O)Nc3cncc(CC(F)(F)F)c3)c(F)cc2C)s1 [Example 81] .
< 6.00

Please report the recorded pIC50 for Cc1ncc(C(=O)Nc2cc(C(=O)NCc3ccc(OC(F)(F)F)cc3F)c(F)cc2C)s1 [Example 270] .
< 6.00

---

# Target desc: PDGFRβ (Homo sapiens (Human))
# Sequence (P09619 33-1106): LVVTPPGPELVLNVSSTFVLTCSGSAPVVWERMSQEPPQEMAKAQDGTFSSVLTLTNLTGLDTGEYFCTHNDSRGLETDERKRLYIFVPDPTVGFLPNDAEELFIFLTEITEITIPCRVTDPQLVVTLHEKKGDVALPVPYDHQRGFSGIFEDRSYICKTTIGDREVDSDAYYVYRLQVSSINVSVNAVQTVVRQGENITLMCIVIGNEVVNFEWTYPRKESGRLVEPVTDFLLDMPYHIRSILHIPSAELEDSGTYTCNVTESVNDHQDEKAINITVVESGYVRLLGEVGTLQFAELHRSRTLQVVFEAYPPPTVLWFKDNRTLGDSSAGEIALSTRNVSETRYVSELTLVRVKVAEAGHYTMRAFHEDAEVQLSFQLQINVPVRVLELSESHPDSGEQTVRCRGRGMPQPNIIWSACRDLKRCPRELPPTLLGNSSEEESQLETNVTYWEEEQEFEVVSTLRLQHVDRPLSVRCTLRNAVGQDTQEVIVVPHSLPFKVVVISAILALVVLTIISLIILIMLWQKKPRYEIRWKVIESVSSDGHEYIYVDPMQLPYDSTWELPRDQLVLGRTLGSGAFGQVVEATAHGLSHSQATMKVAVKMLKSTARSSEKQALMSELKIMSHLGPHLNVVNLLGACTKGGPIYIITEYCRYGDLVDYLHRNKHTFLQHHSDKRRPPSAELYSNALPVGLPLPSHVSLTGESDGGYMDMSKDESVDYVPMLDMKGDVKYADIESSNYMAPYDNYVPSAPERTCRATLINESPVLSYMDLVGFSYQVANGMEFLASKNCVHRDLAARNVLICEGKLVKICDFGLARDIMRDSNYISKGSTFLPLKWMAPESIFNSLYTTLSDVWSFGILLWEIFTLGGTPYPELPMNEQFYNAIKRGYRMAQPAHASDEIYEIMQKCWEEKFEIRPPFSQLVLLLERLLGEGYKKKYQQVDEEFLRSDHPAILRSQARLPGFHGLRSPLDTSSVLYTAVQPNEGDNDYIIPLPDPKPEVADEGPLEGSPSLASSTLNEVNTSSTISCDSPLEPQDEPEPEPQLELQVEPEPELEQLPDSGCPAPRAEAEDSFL
# Test description: Inhibition of PDGFRβ kinase activity (HTRF KinEASE-TK)
# Condition notes: biochemical, HTRF KinEASE-TK
pIC50: −log10 of the molar value.
Readout kind: pIC50

>>> readout_value("Cc1cc(F)c(C(=O)Nc2ccc(OC3CC3)cn2)cc1NC(=O)c1cnc(NC(=O)C(F)(F)F)s1")
"6.00 to 7.00"
>>> readout_value("Cc1cc(F)c(C(=O)Nc2nc(C)n(C)n2)cc1NC(=O)c1cnc(N)s1")
"< 6.00"
>>> readout_value("Cc1cc(F)c(C(=O)Nc2cnn(C3CC3)c2)cc1NC(=O)c1cnc(N)s1")
"6.00 to 7.00"

Any idea what pIC50 came out for "Cc1ncc(C(=O)Nc2cc(C(=O)NCc3cccc(F)c3F)c(F)cc2C)s1" on PDGFRβ (Homo sapiens (Human))?
< 6.00
